Sourced from patent US4788181A

# Assay comment: Cytotoxicity to ATH8 cells cultured with the nucleoside (trypan blue viable cell count)
# Format: cell-based
# Measurement context: human, ath8 cells
Experimental endpoint: cytotoxicity at 10 µM (%)
// units = %; emit number, no label

Query block: Please give the documented cytotoxicity at 10 µM of Cc1cn([C@H]2CC[C@@H](COP(=O)(O)O)O2)c(=O)[nH]c1=O
Result block: 9

----------
# Assay comment: Cytotoxicity to ATH8 cells cultured with the nucleoside (trypan blue viable cell count)
# Assay type: cell-based
# Measurement context: human; 10 μM; ATH8 cells; read-out: Cytotoxicity (%)
Experimental endpoint: cytotoxicity at 10 µM
Please don't drop the unit; write it after the number.

{"columns": ["Molecule", "Measured result"],
 "data": [
  ["Nc1ncnc2c1ncn2[C@H]1CC[C@@H](CO)O1", "0%"],
  ["Cc1cn([C@H]2CC[C@@H](CO)O2)c(=O)nc1N", "27%"],
  ["Cc1cn([C@H]2CC[C@@H](CO)O2)c(=O)[nH]c1=O", "8%"],
  ["Nc1ncnc2c1ncn2[C@H]1CC[C@@H](COP(=O)(O)O)O1 [Compound 25, 2',3'-dideoxyadenosine-5'-phosphate]", "6%"],
  ["Nc1nc(=O)n([C@H]2CC[C@@H](CO)O2)cc1Br", "14%"]
]}

Query block: Output cytotoxicity at 10 µM of Nc1ncn([C@H]2CC[C@@H](CO)O2)c(=O)n1
Result block: 19%

Query block: Supply cytotoxicity at 10 µM value. Item: Nc1ccn([C@H]2CC[C@@H](COP(=O)(O)O)O2)c(=O)n1
Result block: 0%

----------
# Assay comment: Cytotoxicity to ATH8 cells cultured with the nucleoside (trypan blue viable cell count)
# Assay type: cell-based
# Measurement context: human; 0.05 μM; ATH8 cells; read-out: Cytotoxicity (%)
Experimental endpoint: cytotoxicity at 0.05 µM (%)
Express your answer in %, writing the number without its unit.

Query block: For the compound Nc1nc(=O)n([C@H]2CC[C@@H](CO)O2)cc1F [Compound 22, 2',3'-Dideoxy-5-fluorocytidine] , give its reported cytotoxicity at 0.05 µM.
Result block: 5

----------
# Assay comment: Cytotoxicity to ATH8 cells cultured with the nucleoside (trypan blue viable cell count)
# Format: cell-based
# Measurement context: human, ath8 cells
Experimental endpoint: cytotoxicity at 0.5 µM (%)
Give a bare numeral; the unit % is implied.

Query block: Please indicate cytotoxicity at 0.5 µM recorded for Nc1ccn([C@H]2CC[C@@H](CO)O2)c(=O)n1 [Compound 1, 2',3'-dideoxycytidine]
Result block: 0

----------
# Assay comment: Cytotoxicity to ATH8 cells cultured with the nucleoside (trypan blue viable cell count)
# Type: cell-based
# Measurement context: human; 500 μM; ATH8 cells
Experimental endpoint: cytotoxicity at 500 µM (%)
Respond with the bare value in %.

Query block: Return the recorded cytotoxicity at 500 µM value; entry: Cc1cn([C@H]2CC[C@@H](CO)O2)c(=O)[nH]c1=O [Compound 3, dideoxythymidine]
Result block: 30

----------
# Assay comment: Cytotoxicity to ATH8 cells cultured with the nucleoside (trypan blue viable cell count)
# Assay type: cell-based
# Measurement context: human, ath8 cells; read-out: concentration at which toxicity began to show
Experimental endpoint: MCC (µM)
Express your answer in µM, writing the number without its unit.

Query block: Return reported MCC. Input compound: Cc1cn([C@H]2CC[C@@H](CO)O2)c(=O)nc1N
Result block: 100

----------
# Assay comment: Cytotoxicity to ATH8 cells cultured with the nucleoside (trypan blue viable cell count)
# Type: cell-based
# Measurement context: human; 50 μM; ATH8 cells; read-out: Cytotoxicity (%)
# Protocol: ^b The percentage of cytotoxicity was determined by the following 100 × [1 - (number of viable cells cultured in the presence of the nucleoside)/(number of viable cells cultured alone)]. […]
# maps each entry to its cytotoxicity at 50 µM
The response must be a number in % with no trailing unit.

{"columns": ["Compound", "Measured result"],
 "data": [
  ["Nc1ncnc2c1ncn2[C@H]1CC[C@@H](CO)O1", 0]
]}

Query block: Please list cytotoxicity at 50 µM recorded for the compound Nc1ncn([C@H]2CC[C@@H](CO)O2)c(=O)n1
Result block: 62

Query block: For the compound Nc1nc(=O)n([C@H]2CC[C@@H](CO)O2)cc1F , give its reported cytotoxicity at 50 µM.
Result block: 9

Query block: Given the compound Cc1cn([C@H]2CC[C@@H](CO)O2)c(=O)[nH]c1=O , write its reported cytotoxicity at 50 µM.
Result block: 8

Query block: Give the reported cytotoxicity at 50 µM for this compound. Nc1ncnc2c1ncn2[C@H]1CC[C@@H](COP(=O)(O)O)O1 [Compound 25, 2',3'-dideoxyadenosine-5'-phosphate]
Result block: 4
